Biological target: human alpha-2B-adrenoceptor (Homo sapiens)
Construct: expressed in transfected cells
Sequence (P18089 whole entry): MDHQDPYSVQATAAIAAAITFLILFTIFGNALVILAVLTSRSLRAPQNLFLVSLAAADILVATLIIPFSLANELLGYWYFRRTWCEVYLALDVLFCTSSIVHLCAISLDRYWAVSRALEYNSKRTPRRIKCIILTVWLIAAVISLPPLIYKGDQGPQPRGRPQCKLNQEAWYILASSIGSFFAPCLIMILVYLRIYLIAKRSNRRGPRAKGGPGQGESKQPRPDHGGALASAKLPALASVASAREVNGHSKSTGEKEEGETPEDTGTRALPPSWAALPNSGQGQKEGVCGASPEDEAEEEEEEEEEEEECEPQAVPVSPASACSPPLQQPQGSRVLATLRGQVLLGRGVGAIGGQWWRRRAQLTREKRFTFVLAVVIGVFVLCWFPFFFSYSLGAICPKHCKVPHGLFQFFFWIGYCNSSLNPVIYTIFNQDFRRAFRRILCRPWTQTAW
Assay: Human alpha-2-adrenoceptor binding affinity, 3H-rauwolscine competition binding
Details: Mean ± SEM, membranes of Shionogi S115 cells transfected with human α2B
property-measured: Ki (nM)

[A] Cc1cc(C)nc(NS(=O)(=O)c2ccc(NCc3ccc4ccccc4c3)cc2)n1
[B] Cc1cc(C)nc(NS(=O)(=O)c2ccc(NC(c3ccccc3)c3ccccc3)cc2)n1
[C] COc1ccccc1CCNc1ccc(S(=O)(=O)Nc2nc(C)cc(C)n2)cc1
# input Please produce an ascending ranking of these compounds based on Ki. Lab note: final answer is the ordered label list.
# output C, A, B
(C: 32 nM, A: 440 nM, B: 8000 nM)
